Data provenance: patent US12195427B2

// reported a(CA1, O1, O2) per item
Target: MASP-2 CCP2-SP (Homo sapiens (Human), UniProt O00187)
Sequence (O00187 445-686): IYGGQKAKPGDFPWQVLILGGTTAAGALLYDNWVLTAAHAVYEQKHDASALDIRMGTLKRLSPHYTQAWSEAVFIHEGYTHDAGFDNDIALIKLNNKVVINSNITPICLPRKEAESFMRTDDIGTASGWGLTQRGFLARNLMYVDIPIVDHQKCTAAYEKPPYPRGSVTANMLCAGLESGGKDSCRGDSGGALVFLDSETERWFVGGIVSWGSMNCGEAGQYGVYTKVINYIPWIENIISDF
Sequence (O00187 364-432 partner): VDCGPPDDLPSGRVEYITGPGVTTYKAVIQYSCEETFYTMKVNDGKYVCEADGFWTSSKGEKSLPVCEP
Test: MASP-2 co-crystallization, X-ray crystallography and structure analysis (H-bonds, van der Waals contacts)
Details: Table A6-1 pharmacophore angle
Counter-ions that a name gives are not always drawn.
Form field (numeric): enter value without unit.

Before answering, review these 4 worked examples.
CC(NC(=O)C1CC(Cc2ccccc2)CN1)C(=O)NCc1cnc2c(c1)c(Cl)cn2C.Cl.Cl (centres unmarked) [1450_B] :: 98.92
Cc1nc(N)ccc1CNC(=O)[C@H](C)NC(=O)[C@H]1C[C@H](Cc2cccc(Cl)c2)CN1.Cl.Cl [1328_3] :: 97.62
C[C@H](NC(=O)[C@H]1C[C@H](Cc2ccccc2)CN1)C(=O)NCc1ccc(C(=N)N)cc1.Cl.Cl [1306_2] :: 114.80
CC(=O)Nc1ccc(CCN[C@H](CCc2ccccc2)C(=O)N[C@@H](C)C(=O)NCc2ccc(N)nc2C)cc1 [compound 1368, Dihydrochloride] :: 151.69

-- ask Tell me its a(CA1, O1, O2) on MASP-2 CCP2-SP (Homo sapiens (Human), UniProt O00187): C[C@H](NC(=O)[C@H]1C[C@@H](c2ccccc2)CCN1)C(=O)NCc1cc(Cl)ccc1O.Cl [1078_4]
-- reply 112.48

-- ask Tell me its a(CA1, O1, O2) on MASP-2 CCP2-SP (Homo sapiens (Human), UniProt O00187): "Cc1nc(N)ccc1CNC(=O)[C@H](C)NC(=O)[C@H]1C[C@@H](c2ccccc2)CCN1C"
-- reply 108.56

-- ask Tell me its a(CA1, O1, O2) on MASP-2 CCP2-SP (Homo sapiens (Human), UniProt O00187): CC(NC(=O)C(CCc1ccccc1)NCc1ccc(C(=O)N2CCOCC2)cc1)C(=O)NCc1ccc(C(=N)N)cc1.Cl.Cl (centres unmarked)
-- reply 99.83

-- ask Tell me its a(CA1, O1, O2) on MASP-2 CCP2-SP (Homo sapiens (Human), UniProt O00187): C[C@H](NC(=O)[C@H]1C[C@H](Cc2ccccc2)CN1)C(=O)NCc1cc(Cl)ccc1-n1cnnn1 [compound 1371, Hydrochloride]
-- reply 121.03

-- ask Tell me its a(CA1, O1, O2) on MASP-2 CCP2-SP (Homo sapiens (Human), UniProt O00187): Cc1nc(N)ccc1CNC(=O)[C@H](C)NC(=O)[C@H]1C[C@H](Cc2cccc(Cl)c2)CN1.Cl.Cl [1328_4]
-- reply 96.00

-- ask Tell me its a(CA1, O1, O2) on MASP-2 CCP2-SP (Homo sapiens (Human), UniProt O00187): "CNC(=O)c1ccc2c(=O)n(Cc3ccccc3)c(=O)n(CC(=O)NCc3ccc(C(=N)N)cc3)c2c1"
-- reply 100.76

-- ask Tell me its a(CA1, O1, O2) on MASP-2 CCP2-SP (Homo sapiens (Human), UniProt O00187): C[C@H](NC(=O)[C@H]1C[C@@H](c2ccccc2)CCN1)C(=O)NCc1ccc(C(=N)N)cc1 (stereo in doubt)
-- reply 110.77

-- ask Tell me its a(CA1, O1, O2) on MASP-2 CCP2-SP (Homo sapiens (Human), UniProt O00187): C[C@H](NC(=O)[C@H]1C[C@@H](c2ccccc2)CCN1)C(=O)NCc1cc(Cl)ccc1O.Cl [1078_15]
-- reply 108.62

-- ask Tell me its a(CA1, O1, O2) on MASP-2 CCP2-SP (Homo sapiens (Human), UniProt O00187): Cc1nc(N)ccc1CNC(=O)[C@H](C)NC(=O)[C@H]1C[C@H](Cc2cc(-c3ccccc3)cs2)CN1 [compound 1399, Dihydrochloride]
-- reply 105.80

-- ask Tell me its a(CA1, O1, O2) on MASP-2 CCP2-SP (Homo sapiens (Human), UniProt O00187): Cc1nc(N)ccc1CNC(=O)[C@H](C)NC(=O)[C@H]1C[C@H](Cc2cccc(Cl)c2)CN1.Cl.Cl [1328_1]
-- reply 101.20

* * *

// reported d(H4,O1) per item
Target: MASP-2 CCP2-SP (Homo sapiens (Human), UniProt O00187)
Test: MASP-2 co-crystallization, X-ray crystallography and structure analysis (H-bonds, van der Waals contacts)
Design: unit not given beside the values
Settings: Table A5-1 pharmacophore: distance between elements, S2/S1 region
Where a name gives a salt, the structure may show the parent alone.

Cc1cccc([C@H]2CN[C@@H](C(=O)N[C@@H](C)C(=O)NCc3ccc(N)nc3C)C2)c1 [compound 1257, Dihydrochloride] :: 4.43
C[C@H](NC(=O)[C@H]1C[C@H](Cc2ccccc2)CN1)C(=O)NCc1cnc2[nH]cc(Cl)c2c1 :: 3.14

Next up:
-- ask For the molecule Cc1nc(N)ccc1CNC(=O)[C@H](C)NC(=O)[C@H]1C[C@H](Cc2cccc(Cl)c2)CN1.Cl.Cl [1328_1] , report d(H4,O1).
-- reply 4.21

* * *

Target: MASP-2 CCP2-SP (Homo sapiens (Human), UniProt O00187)
Assay: MASP-2 co-crystallization, X-ray crystallography and structure analysis (H-bonds, van der Waals contacts)
Design: unit not given beside the values
Details: Table A5-2 pharmacophore distance, S3/S4 region
observationType: d(O2,H3)
Form field (numeric): enter value without unit.

CC(=O)Nc1ccc(CCNC(CCc2ccccc2)C(=O)NC(C)C(=O)NCc2ccc(C(=N)N)cc2)cc1.Cl.Cl (stereo not drawn) [1345_2] :: 5.51

-- ask For the molecule CC(NC(=O)C1CC(Cc2ccccc2)CN1)C(=O)NCc1cnc2c(c1)c(Cl)cn2C.Cl.Cl (stereo not drawn) [1450_B] , report d(O2,H3).
-- reply 2.32

-- ask For the molecule "Cc1nc(N)ccc1CNC(=O)[C@H](C)NC(=O)c1cc(Cc2ccccc2)n[nH]1" , report d(O2,H3).
-- reply 2.68

* * *

Target: MASP-2 CCP2-SP (Homo sapiens (Human))
Assay: MASP-2 co-crystallization, X-ray crystallography and structure analysis (H-bonds, van der Waals contacts)
Settings: Table A7-1; between pharmacophore elements of the bound compound
Counter-ions that a name gives are not always drawn.
observationType: Pharmacophore torsion angle a(N1, CA1, O1, H4)
Form field (numeric): enter value without unit.

Cc1nc(N)ccc1CNC(=O)[C@H](C)NC(=O)[C@H]1C[C@H](Cc2cccc(Cl)c2)CN1.Cl.Cl [1328_3] :: 39.33
Cc1nc(N)ccc1CNC(=O)[C@H](C)NC(=O)[C@H]1C[C@H](Cc2cc(Cl)cc(Cl)c2)CN1 [compound 1435, Dihydrochloride] :: 1.43
Cc1nc(N)ccc1CNC(=O)[C@H](C)NC(=O)[C@H]1C[C@H](Cc2cccc(Cl)c2)CN1.Cl.Cl [1328_1] :: 20.31
Cc1nc(N)ccc1CNC(=O)[C@H](C)NC(=O)[C@H]1C[C@H](Cc2ccccc2Br)CN1.O=C(O)C(F)(F)F.O=C(O)C(F)(F)F [1372_B] :: 4.96
Cc1nc(N)ccc1CNC(=O)[C@H](C)NC(=O)[C@H]1C[C@@H](c2cccc3ccccc23)CCN1.Cl.Cl [1297_5] :: 10.41
Cc1nc(N)ccc1CNC(=O)[C@H](C)NC(=O)[C@H]1C[C@H](Cc2cc(-c3ccccc3)cs2)CN1 [compound 1399, Dihydrochloride] :: 0.87
Cc1nc(N)ccc1CNC(=O)[C@H](C)NC(=O)[C@H]1C[C@@H](Cc2ccccc2)CCN1 :: 3.14

Next up:
-- ask For the compound Cc1nc(N)ccc1CNC(=O)[C@H](C)NC(=O)[C@H]1C[C@@H](c2ccccc2)CCN1 [compound 1253, Dihydrochloride] , report Pharmacophore torsion angle a(N1, CA1, O1, H4).
-- reply 3.75

* * *

Biological target: UniProt O00187
Experiment: MASP-2 co-crystallization, X-ray crystallography and structure analysis (H-bonds, van der Waals contacts)
Details: Table A2-12
Where a name gives a salt, the structure may show the parent alone.
observationType: van der Waals contact distance, TRP 655 CA to compound atom
Form field (numeric): enter value without unit.

-- ask For the compound Cc1nc(N)ccc1CNC(=O)[C@H](C)NC(=O)[C@H]1C[C@H](Cc2ccc(-c3ccccc3)cc2)CN1 [compound 1351] , report van der Waals contact distance, TRP 655 CA to compound atom.
-- reply 3.34

-- ask For the compound Cc1nc(N)ccc1CNC(=O)[C@H](C)NC(=O)[C@H]1C[C@@H](c2ccccc2)CCN1 [compound 1253, Dihydrochloride] , report van der Waals contact distance, TRP 655 CA to compound atom.
-- reply 3.41

* * *

Molecular target: MASP-2 CCP2-SP (Homo sapiens (Human))
Assay: MASP-2 co-crystallization, X-ray crystallography and structure analysis (H-bonds, van der Waals contacts)
Details: Table A2-14; MASP-2 SER 657 C; columns c12-c13 (inferred)
observationType: van der Waals contact distance SER 657 atom C
Form field (numeric): enter value without unit.

Before answering, review these 3 worked examples.
C[C@H](NC(=O)[C@H](N)CCc1ccccc1)C(=O)NCc1ccc(N)nc1 :: 3.87
C[C@H](NC(=O)[C@H](N)CCc1cccc(Cl)c1)C(=O)NCc1ccc(C(=N)N)cc1 :: 3.62
N=C(N)c1ccc(CNC(=O)[C@@H]2CCN2C(=O)[C@H](NCC(=O)O)C2CCCCC2)cc1 [melagatran, reference compound] :: 3.77

-- ask For the compound "C[C@H](NC(=O)[C@H]1Cc2c([nH]c3ccccc23)CN1)C(=O)NCc1ccc(C(=N)N)cc1" , report van der Waals contact distance SER 657 atom C.
-- reply 3.52
